# ASSAY_EXPLANATION: NCI Yeast Anticancer Drug Screen. Data for the rad50 strain (AID 155);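 further: 0% = growth of vehicle-only cultures of the same strain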
# SETTINGS: S. cerevisiae rad50 strain growth inhibition; at 5.0 µM (retest, dose inferred, filed as 0.5); hits give high values
About 79,000 compounds went through this panel and 15% of them were active in at least one assay; those are over-represented in the sample as a whole.
# growth inhibition annotations
Your answer should be a plain number; it is taken to be in %.

CC1CN1C1=C(F)C(=O)C(N2CC2C)=C(F)C1=O (stereo not given) : 98

Quick note, growth inhibition for CCC1CC2C3Cc4ccc(OC)c(O)c4C2(CCN3C)CC1=O (stereo not given) landed at 6

Record summary for O=[N+]([O-])c1cccc(N=Cc2ccc(N(CCCl)CCCl)cc2)c1 : reported growth inhibition = 4

The recorded growth inhibition for O=c1ssc(Cl)c1Cl is 97

The value of growth inhibition measured for the compound [Cl][Pt+2][Cl].[NH-]C1CCCC2CCC[N-]C12 (stereo not given) turned out to be 34

Given item O=C(O)C(O)(c1ccccc1)C1(O)CCCCC1 (stereo not given) , the value recorded as its growth inhibition is -147

Cc1cccc(C)c1NC(=O)/C(CC(=O)CC(c1ccccc1)c1c(O)c2ccccc2oc1=O)=N/O (stereo not given) yielded growth inhibition of 26

* * *

# ASSAY_EXPLANATION: NCI Yeast Anticancer Drug Screen. Data for the mlh1 strain (AID 171);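 further: 0% = growth of vehicle-treated control cultures of the same strain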
# SETTINGS: S. cerevisiae mlh1 strain growth inhibition; at 33.0 µM
About 79,000 compounds went through this panel and 15% of them were active in at least one assay; those are over-represented in the sample as a whole. Activity calls are given as the source filed them. Rule as the data show it: active = growth inhibition above about 70%; inactive = the rest.
Classes to choose from: y for active, n for inactive

Task item: Write down the call the test reported for this compound. Item: C[CH2][Sn]([CH2]C)([O]S(C)(=O)=O)[O]S(C)(=O)=O
Reply: n

Task item: Dear colleague, could you share the recorded outcome for CC1=C(O)C(=O)C=C2C1=CC=C1[C@@]2(C)CCC2(C)[C@@H]3C[C@@H](C)C(=O)C[C@]3(C)CC[C@]12C (stereo partly drawn) when you have a moment?
Reply: y

Task item: Status in this test for COc1cc([C@@H]2c3cc4c(cc3C[C@@H]3COC(=O)C32)OCO4)cc(OC)c1O (stereo partly drawn) ?
Reply: y

Task item: // param item: CC1=C(N2CC2)C(=O)c2ccccc2C1=O ; yields the recorded call
Reply: n

Task item: What call does the record list for CC(Cc1ccccc1)N(C)Cc1nc(C2CCC([N+](=O)[O-])O2)no1 (stereo not drawn) ?
Reply: n

Task item: Name the outcome recorded for CCCCCCCCCC[Se]C#N in the assay.
Reply: n

Task item: # lookup: test call for Cc1c(N)nc([C@H](CC(N)=O)NC[C@H](N)C(N)=O)nc1C(=O)N[C@H](C(=O)N[C@H](C)[C@@H](O)[C@H](C)C(=O)N[C@H](C(=O)NCCc1nc(-c2nc(C(=O)NCCC[S+](C)C)cs2)cs1)[C@@H](C)O)C(OC1OC(CO)C(O)C(O)C1OC1OC(CO)C(O)C(OC(N)=O)C1O)c1cnc[nH]1 (stereo partly drawn)
Reply: n

Task item: # lookup: test call for COC1C(O)C(C)OC(OC2C(Oc3cccc4c(O)c5c(=O)oc6ccc(C)c7c(=O)oc(c34)c5c67)OC(C)C(O)C2O)C1O (stereo not drawn)
Reply: n

* * *

# ASSAY_EXPLANATION: NCI Yeast Anticancer Drug Screen. Data for the wt2 strain (AID 169);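 further: 0% = growth of vehicle-treated yeast cultures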
# SETTINGS: S. cerevisiae wt2 strain growth inhibition; at 11.0 µM; hits give high values
Compounds without any hit were thinned out: in the full panel of roughly 79,000, 15% have a hit.
In this section we review reported growth inhibition values for a set of molecules.
Give just the numeric value; % need not be written.

CCC1(O)C(=O)OCc2c1cc1n(c2=O)Cc2cc3ccccc3nc2-1 (stereo unspecified) : -1

For record O=S(=O)(O)c1ccc(Cl)cc1.[Cd] the listed growth inhibition is 20

Just so you know, measured growth inhibition for O=C1NC(=S)NC(=O)C1=C/C=C/c1ccccc1 came out at 2

* * *

# ASSAY_EXPLANATION: NCI Yeast Anticancer Drug Screen. Data for the mlh1 rad18 strain (AID 175)
# SETTINGS: S. cerevisiae mlh1 rad18 strain growth inhibition; at 5.0 µM (retest, dose inferred, filed as 0.5)
About 79,000 compounds went through this panel and 15% of them were active in at least one assay; those are over-represented in the sample as a whole. The source made the active and inactive calls. No stated cut-off is given here; in the data, active means growth inhibition above about 70%; inactive means the rest.
Pick from Y = active, N = inactive when you respond.

Look over these answered cases.
O=C1C2CCN(CC2)C1CN1CCOCC1 (configuration not stated) : N
N#C[S-].[Nd+3].c1cnc2c(c1)ccc1cccnc12.c1cnc2c(c1)ccc1cccnc12.c1cnc2c(c1)ccc1cccnc12 : Y
CNC(=O)OCC1C2=C(C(=O)C(C)=C(N)C2=O)N2CC3C(N3C)C12OC (configuration not stated) : N

Task item: Please let me know the test result on file for COc1ccc2c3c1OC1C(=O)C4CC5(c6c(O)ccc(O)c64)C(C2)N(C)CCC315 (configuration not stated) .
Reply: N

Task item: Dear all, I need the recorded test outcome for CC/C(=C\c1ccc(Cl)cc1)[N+](=O)[O-] , thank you.
Reply: N

Task item: So what was the verdict on CC(O[Si](c1ccccc1)(c1ccccc1)C(C)(C)C)[C@H](NC(=O)OC(C)(C)C)C(=O)O (some centres not stated) in this test?
Reply: N

Task item: Query: recorded result category for O=P(Oc1ccc(Cl)cc1)(Oc1ccc(Cl)cc1)N1CC1 in this test
Reply: N

Task item: Per the assay record, what outcome was assigned to CCOC(=O)C1([Se]c2ccccc2)CCCC1=O (configuration not stated) ?
Reply: N

* * *

# ASSAY_EXPLANATION: NCI Yeast Anticancer Drug Screen. Data for the wt1 strain (AID 149);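 further: 0% = growth of vehicle-treated wt1 cultures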
# SETTINGS: S. cerevisiae wt1 strain (SPY 50644) growth inhibition; at 11.0 µM; hits give high values
# Description: Growth inhibition of yeast strains with defined genetic alterations is measured as a screen for potential anti-cancer activity. Selected strains with alterations in DNA damage repair or cell cycle control were exposed to compounds and growth inhibition was measured relative to vehicle treated controls. The strain used in this assay is wt1
Compounds without any hit were thinned out: in the full panel of roughly 79,000, 15% have a hit. Calls of active or inactive are those of the source. Cut-off read from the data, not from the text of the source: active = growth inhibition above about 70%; inactive = the rest.
READOUT: growth inhibition

Known results for compounds:
C[CH2][Sn]1([CH2]C)[O]C2C(O)OC(CO)C(O)C2[O]1 (centres undefined) : -9% (inactive)
OC1(c2ccccc2)CC2CCC(C1)N2CCCC(O)(c1ccccc1)c1ccccc1 (centres undefined) : 2% (inactive)
CC1(Cl)CC(C)(/C=C/Cl)C(Cl)CC1Cl (centres undefined) : 3% (inactive)
c1c(N2CCOCC2)ssc1=[N+]1CCOCC1 : 0% (inactive)

Please fill in: growth inhibition reported for BrCC[N+]12CC[N+](CCBr)(CC1)C2 = 14% (inactive)

Reported growth inhibition for NCCc1ccc(OCc2ccccc2)c(OCc2ccccc2)c1 was -28% (inactive)

The compound CO[C@H](/C(C)=C/C=C/C(C)=C/c1coc(C)n1)[C@H](C)[C@H]1C[C@@H](O)[C@@]2(C)O[C@H]2/C=C/[C@@H](C)[C@@H]2C[C@@H](CC(=O)O2)C[C@H]2O[C@@H]2C(=O)O1 showed growth inhibition equal to 2% (inactive)

Entry O=[N+]([O-])c1ccc(C=Cc2ccccc2)cc1.[C-]#[O+].[C-]#[O+].[C-]#[O+].[Cr] — recorded growth inhibition = 1% (inactive)

Looking up Cc1cc[n+](C2=C(Nc3cccc(C(F)(F)F)c3)C(=O)c3ccccc3C2=O)cc1 , I found its growth inhibition recorded as 4% (inactive)

* * *

# ASSAY_EXPLANATION: NCI Yeast Anticancer Drug Screen. Data for the mlh1 strain (AID 171);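 further: 0% = growth of vehicle-treated control cultures of the same strain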
# SETTINGS: S. cerevisiae mlh1 strain growth inhibition; at 1.2 µM; hits give high values
The panel holds about 79,000 compounds, 15% with a hit somewhere; the sample as a whole holds those more often.
READOUT: growth inhibition (%)
Give the value in % but do not write % after it.

COC(=O)C1=C(C(=O)OC)C2OC1c1cc3ccccc3cc12 : 19
C/C(CCl)=N/NC1=NC(c2ccccc2Cl)P(=O)(NCCCNP2(=O)SC(N/N=C(/C)CCl)=NC2c2ccccc2Cl)S1 (stereo unspecified) : -2
[O-][n+]1c2cccc(O)c2[n+]([O-])c2cccc(O)c21 : 3
CN(CCc1ccc(Br)cc1)CCN1CCCCC1 : 11
COC(=O)C1C2c3ccccc3C(c3ccccc32)C1C(=O)OC (stereo unspecified) : -2

Query O=C(O)CCCc1cc(I)c(N(CCCl)CCCl)c(I)c1 yields growth inhibition of -50

growth inhibition reading for OC1CCCC2CCC[N-]C12.OC1CCCC2CCC[N-]C12.[O]=[V][OH] (stereo unspecified) : -25

// provenance: PubChem BioAssay (NCI)
